Values compiled from patent US20240376185A1.

Measured absorbance at 450 nm, listed per entry.
target: dog IgG; assay: ELISA, coated antigen, E. coli supernatant

Worked set:
binder	reported metric	experimental result
SVG06 (VHH) VHH: QVQLQESGGALVQPGGSLRLSCAASGFPFSAYDMTWVRQAPGQGLEWVSTIHKSGGITTYADSVKGRFTISRDNAKNTLYLQMNNLESEDTAVYYCAKALRAHNSDYVGRNALGSWGEGTLVTVSS	absorbance at 450 nm	0.277 A450
SVG03 (VHH, not shown: large carriers) VHH: QVQLQESGGGLVQAGGSLRLSCAASGRTFSNYVMGWFRQAPGKEREFVSAISWNGVSTFYADSVKGRFTISRDNAKNTVYLQMNSLKPEDTAVYYCAADERFVVRYNYWGQGTQVTVSS	absorbance at 450 nm	0.07 A450
SVG24 (VHH, not shown: large carriers) VHH: QVQLQQSGGGLVQAGGSLRLSCAASGRTFSTYNIAWFRQAPGKEREFVTAITWGSGNTYYADSVKGRFTISRDNAKNTVFLQMNSLKPDDTAVYYCAARRSLGPTMAFAYEYWGQGTQVTVSS	absorbance at 450 nm	1.74 A450

Note to self: absorbance at 450 nm recorded for SVG07 (VHH, not shown: large carriers) VHH: QVQLQESGPGLVKPSQTLSLTCTVSGGSITTTAYAWSWIRQPPGKGLEWMGAIRFDGTTDYSPSLKSRISISRDTSNNQFSLRMSSVTPEDTAVYYCARYGVVSDHGGLDYWGQGTQVTVSS was 0.479 A450
